assay: log P by HPLC on reversed-phase column (EEC Directive 79/831 Annex V.A8); format: physicochemical; conditions: HPLC, reversed-phase C 18, 40° C., 0.1% aqueous formic acid and acetonitrile, linear gradient 10% to 90% acetonitrile
READOUT_KIND: logP

CN(Cc1c(Cl)cccc1Cl)C(=O)c1c(C(F)F)nn(C)c1F    2.82

A: Cn1nc(C(F)F)c(C(=O)NC(C)(C)c2cc(Cl)ccc2Cl)c1F
B: Cn1nc(C(F)F)c(C(=O)NCc2ccccc2Cl)c1F
QUERY: Field: entry with larger logP (options A / B ). // output: label of the selected item
RESULT: A
(A: 3.89, B: 2.50)
